Every entry's value here was drawn from ChEMBL document CHEMBL3507680.

Consider the following molecules and their measured cytotoxicity at 70.5 h readings.
assayProcedure: Human HepG2 cell viability assay in 384 well format
Format: toxicity, cell-based
Set-up: dose 125 nL, time 70.5 hour; concentration not given beside the values
assaySetup: HepG2 cells, read-out: Inhibition
State the answer as a number, implicitly in %.

Below, 5 molecules whose answers are already recorded.
O=C1COC2(CCN(Cc3ccccn3)CC2)CN1CC1CC1 = -0.792
O=C(Nc1cc(-c2ccccn2)no1)C1CC1 = 11.7
CCCc1nc(CNC2(c3nccs3)CCCC2)cs1 = 4.59
Cc1ccoc1C(=O)N1CCC(n2cc(-c3ccsc3)nn2)CC1 = -12.5
Cc1cc2n(n1)CC(CNCCc1cnn(C)c1)CN2 (configuration not stated) = 34.9

Provide measured cytotoxicity at 70.5 h value, entry: CC(C(=O)NC1CC1)S(=O)(=O)c1cc2c(cc1Cl)OCCO2 (configuration not stated) -8.64

Please report the measured cytotoxicity at 70.5 h for Cc1nc(C(=O)N2CCCC2c2c(C)nn(C)c2C)cs1 (configuration not stated) -3.9
